Cited source: patent US20250361322A1

targetOfAssay: human Tissue Factor (hTF) (human, UniProt P13726 33-295)
assayExplanation: cell-based or functional assay
measurementName: IC50, cell viability of HPAF-II cells, Primary ADC, Continuous (FIG. 22E)
Numeric answer plus unit only.

Consider the reported IC50, cell viability of HPAF-II cells, Primary ADC, Continuous (FIG. 22E) for these binders:
25A3-vc-MMAE (antibody, IgG1, V domains shown, MC-vc-PAB-MMAE on cysteines of the partially reduced antibody (chain and positions not stated), DAR 3-4, Antibody-drug conjugate (primary ADC) of the IgG1 antibody; also called 25A3 ADC; 25A3 MMAE ADC) VH: QVQLVQSGAEVKKPGASVKVSCKASGYTFDVYGISWVRQAPGQGLEWMGWIAPYSGNTNYAQKLQGRVTMTTDTSTSTAYMELRSLRSDDTAVYYCARDAGTYSPFGYGMDVWGQGTTVTVSS VL: DIQMTQSPSTLSASVGDRVTITCQASQSINNWLAWYQQKPGKAPKLLIYKAYNLESGVPSRFSGSGSGTEFTLTISSLQPDDFATYYCQLFQSLPPFTFGGGTKVEIK	0.05 nM
anti-TF antibody 43B1 conjugated to MC-vc-PAB-MMAE (antibody, IgG1, V domains shown, MC-vc-PAB-MMAE on cysteines of the partially reduced antibody (chain and positions not stated), DAR 3-4) VH: QVQLQESGPGLVKPSQTLSLTCTVSGGSISSGQYWSWIRQHPGKGLEWIGEIYYSGSTRYNPSLKSRVTISVDTSKNQFSLKLSSVTAADTAVYYCARDAPYYYGGGYYYYMDVWGKGTTVTVSS VL: EIVLTQSPGTLSLSPGERATLSCRASESVDSSYLAWYQQKPGQAPRLLIYGASTRQTGIPDRFSGSGSGTDFTLTISRLEPEDFAVYYCQQAGVVPYTFGGGTKVEIK	0.05 nM
25A-vc-MMAE (antibody, IgG1, V domains shown, MC-vc-PAB-MMAE on cysteines of the partially reduced antibody (chain and positions not stated), DAR 3-4, Antibody-drug conjugate (primary ADC) of the IgG1 antibody; also called 25A ADC; 25A conjugated to MC-vc-PAB-MMAE) VH: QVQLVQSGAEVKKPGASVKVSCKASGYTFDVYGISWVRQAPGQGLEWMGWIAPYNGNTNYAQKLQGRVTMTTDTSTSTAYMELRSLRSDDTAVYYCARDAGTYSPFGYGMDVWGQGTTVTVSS VL: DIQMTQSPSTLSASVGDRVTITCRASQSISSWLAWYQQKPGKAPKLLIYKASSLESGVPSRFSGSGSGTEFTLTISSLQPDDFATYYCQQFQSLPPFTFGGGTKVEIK	0.06 nM

Let us examine a further case.
Query :: Dear colleague, I am looking for the recorded IC50, cell viability of HPAF-II cells, Primary ADC, Continuous (FIG. 22E) of the following binder: 43Ea-vc-MMAE (antibody, IgG1, V domains shown, MC-vc-PAB-MMAE on cysteines of the partially reduced antibody (chain and positions not stated), DAR 3-4) VH: QVQLQESGPGLVKPSQTLSLTCTVSGGSISSGQYWSWIRQHPGKGLEWIGEIYYSGSTRYNPSLKSRVTISVDTSKNQFSLKLSSVTAADTAVYYCARDTPYYYDGGYYYYMDVWGKGTTVTVSS VL: EIVLTQSPGTLSLSPGERATLSCRASQSVSSSYLAWYQQKPGQAPRLLIYGASSRATGIPDRFSGSGSGTDFTLTISRLEPEDFAVYYCQQVGVVPYTFGGGTKVEIK
Result :: 0.06 nM
